Source of measurements: patent US8163909B2

molecular target: CYP2D6 (Homo sapiens, UniProt P10635); experiment: CYP2D6 inhibition assay (bufuralol, pooled human liver microsomes); details: 2D6 IC50 (uM), CYP enzyme inhibition
Sequence (P10635 whole entry): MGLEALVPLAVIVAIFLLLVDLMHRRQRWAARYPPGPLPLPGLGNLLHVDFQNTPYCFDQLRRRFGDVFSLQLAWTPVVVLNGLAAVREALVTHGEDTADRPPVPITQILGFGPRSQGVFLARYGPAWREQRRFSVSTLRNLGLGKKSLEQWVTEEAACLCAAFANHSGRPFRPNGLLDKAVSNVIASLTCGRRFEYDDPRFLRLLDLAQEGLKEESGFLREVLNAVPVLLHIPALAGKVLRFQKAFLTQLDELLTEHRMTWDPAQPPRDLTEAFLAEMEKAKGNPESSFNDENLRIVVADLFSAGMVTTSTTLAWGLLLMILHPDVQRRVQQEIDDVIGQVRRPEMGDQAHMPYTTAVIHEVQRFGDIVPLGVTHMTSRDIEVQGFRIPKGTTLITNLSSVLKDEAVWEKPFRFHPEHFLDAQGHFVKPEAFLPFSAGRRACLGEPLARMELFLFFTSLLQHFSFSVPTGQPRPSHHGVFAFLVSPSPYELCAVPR
The following compounds are shown together with reported IC50 values.

{"COMPOUND": "CC(C)(C)Cc1cnc2c(c1)[C@@H](NC[C@@H](O)[C@H](Cc1ccc3c(c1)OCO3)NC(=O)[C@@H]1CCO1)CC1(CCC1)O2", "MEASUREMENT_QUALIFIER": "=", "IC50, µM": 3.1}
{"COMPOUND": "C#Cc1cccc(C[C@H](NC(=O)C(OC)OC)[C@H](O)CN[C@H]2CC3(CCC3)Oc3ncc(CC(C)(F)F)cc32)c1", "MEASUREMENT_QUALIFIER": "=", "IC50, µM": 1.3}
{"COMPOUND": "COCC(=O)N[C@@H](Cc1ccccc1)[C@H](O)CN[C@H]1CC2(CCC2)Oc2c1cc(CC(C)C)cc2-n1ccnc1", "MEASUREMENT_QUALIFIER": "=", "IC50, µM": 3.8}
{"COMPOUND": "CO[C@H](C)C(=O)N[C@@H](Cc1cccc(-c2ncco2)c1)[C@H](O)CN[C@H]1CC2(CCC2)Oc2ncc(CC(C)(C)C)cc21", "MEASUREMENT_QUALIFIER": "=", "IC50, µM": 0.7}
{"COMPOUND": "CO[C@H](C)C(=O)N[C@@H](Cc1ccc2c(c1)OCO2)[C@H](O)CN[C@H]1CC2(CCC2)Oc2ccc(C[C@H](C)F)cc21", "MEASUREMENT_QUALIFIER": "=", "IC50, µM": 0.9}
{"COMPOUND": "CC(=O)N[C@@H](Cc1ccc(F)cc1)[C@H](O)CN[C@H]1CC2(CCC2)Oc2ncc(C(F)(F)C(C)(C)C)cc21", "MEASUREMENT_QUALIFIER": "=", "IC50, µM": 7.1}
{"COMPOUND": "CO[C@H](C)C(=O)N[C@@H](Cc1cccc(F)c1)[C@H](O)CN[C@H]1CC2(CCC2)Oc2c(Br)cc(CC(C)C)cc21", "MEASUREMENT_QUALIFIER": "=", "IC50, µM": 9.4}
{"COMPOUND": "COCC(=O)N[C@@H](Cc1cc(F)cc(F)c1)[C@H](O)CN[C@H]1CC2(CCC2)Oc2c(-c3ccncc3)cc(Cl)cc21", "MEASUREMENT_QUALIFIER": "=", "IC50, µM": 0.4}
{"COMPOUND": "COCC(=O)N[C@@H](Cc1ccccc1)[C@H](O)CN[C@H]1CC2(CCC2)Oc2c1cc(CC(C)(C)C)nc2-c1ccncc1", "MEASUREMENT_QUALIFIER": "=", "IC50, µM": 2.1}
{"COMPOUND": "CO[C@H](C)C(=O)N[C@@H](Cc1ccncc1)[C@H](O)CN[C@H]1CC2(CCC2)Oc2ncc(CC(C)(C)C)cc21", "MEASUREMENT_QUALIFIER": "=", "IC50, µM": 3.6}
{"COMPOUND": "CC(=O)N[C@@H](Cc1cccc(F)c1)[C@H](O)CN[C@H]1CC2(CCC2)Oc2c1cc(CC(C)(C)C)nc2-c1ccncc1", "MEASUREMENT_QUALIFIER": "=", "IC50, µM": 2.6}
{"COMPOUND": "CC#Cc1cnc2c(c1)[C@@H](NC[C@@H](O)[C@H](Cc1cccc(Br)c1)NC(=O)COC)CC1(CCC1)O2", "MEASUREMENT_QUALIFIER": "=", "IC50, µM": 3}
{"COMPOUND": "CO[C@H](C)C(=O)N[C@@H](Cc1cccc(F)c1)[C@H](O)CN[C@@H]1CC2(CCC2)Oc2c1cc(CC(C)(C)C)nc2-n1ccnc1", "MEASUREMENT_QUALIFIER": "=", "IC50, µM": 2.8}
{"COMPOUND": "COCC(=O)N[C@@H](Cc1cccc(-c2ncco2)c1)[C@H](O)CN[C@H]1CC2(CCC2)Oc2ncc(CC(C)C)cc21", "MEASUREMENT_QUALIFIER": "=", "IC50, µM": 2.5}
{"COMPOUND": "CC#Cc1cnc2c(c1)[C@@H](NC[C@@H](O)[C@H](Cc1cccc(-c3nccs3)c1)NC(=O)COC)CC1(CCC1)O2", "MEASUREMENT_QUALIFIER": "=", "IC50, µM": 1}
{"COMPOUND": "CO[C@H](C)C(=O)N[C@@H](Cc1cccc(F)c1)[C@H](O)CN[C@H]1CC2(CCC2)Oc2c(-c3ccncc3)cc(CC(C)(C)O)cc21", "MEASUREMENT_QUALIFIER": "=", "IC50, µM": 2.2}
{"COMPOUND": "COCC(=O)N[C@@H](Cc1ccc(-c2nccs2)cc1)[C@H](O)CN[C@H]1CC2(CCC2)Oc2ncc(CC(C)C)cc21", "MEASUREMENT_QUALIFIER": "=", "IC50, µM": 1.3}
{"COMPOUND": "CC(C)Cc1cnc2c(c1)[C@@H](NC[C@H](O)[C@@H](Cc1cccc(-c3nccs3)c1)NC(=O)[C@H]1CCCO1)CC1(CCC1)O2", "MEASUREMENT_QUALIFIER": "=", "IC50, µM": 0.6}
{"COMPOUND": "CC(C)(C)Cc1cnc2c(c1)[C@@H](NC[C@@H](O)[C@H](Cc1ccc3c(c1)OCO3)NC(=O)C1CCS(=O)(=O)C1)CC1(CCC1)O2 (stereo partly shown)", "MEASUREMENT_QUALIFIER": "=", "IC50, µM": 3.9}
{"COMPOUND": "COC(OC)C(=O)N[C@@H](Cc1cc(F)cc(-c2nccs2)c1)[C@H](O)CN[C@H]1CC2(CCC2)Oc2ncc(CC(C)(F)F)cc21", "MEASUREMENT_QUALIFIER": "=", "IC50, µM": 2.3}
{"COMPOUND": "COCC(=O)N[C@@H](Cc1cccc(F)c1)[C@H](O)CN[C@H]1CC2(CCC2)Oc2c(-c3ccncc3)cc(CC(C)(C)Cl)cc21", "MEASUREMENT_QUALIFIER": "≥", "IC50, µM": 27}
{"COMPOUND": "COCC(=O)N[C@@H](Cc1ccc(F)cc1)[C@H](O)CN[C@@H]1CC2(CCC2)Oc2c1cc(CC(C)(C)C)nc2C#N", "MEASUREMENT_QUALIFIER": "=", "IC50, µM": 8.2}
{"COMPOUND": "CCCc1cnc2c(c1)[C@@H](NC[C@H](O)[C@@H](Cc1cc(F)cc(-c3nccs3)c1)NC(=O)COC)CC1(CCC1)O2", "MEASUREMENT_QUALIFIER": "=", "IC50, µM": 0.9}
{"COMPOUND": "CO[C@H](C)C(=O)N[C@@H](Cc1cncs1)[C@H](O)CN[C@H]1CC2(CCC2)Oc2ncc([C@@H]3CC3(C)C)cc21", "MEASUREMENT_QUALIFIER": "=", "IC50, µM": 9.8}
{"COMPOUND": "COCC(=O)N[C@@H](Cc1cccc(F)c1)[C@H](O)CN[C@H]1CC2(CCC2)Oc2c1cc([C@H](n1ccnc1)C(C)(C)C)cc2-n1ccnc1", "MEASUREMENT_QUALIFIER": "=", "IC50, µM": 0.4}

----------
The following compounds are shown together with reported HLM values.
assay: Microsomal stability assay, human liver microsomes; conditions: human liver microsomal data;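 further: pooled human liver microsomes at 0.25 mg/mL with 1 µM compound and NADPH at 37 °C, pH 7.4, for 30 min, unchanged parent quantified by LC-MS/MS against the 0 min sample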

{"COMPOUND": "CO[C@H](C)C(=O)N[C@@H](Cc1cccc(-c2nccs2)c1)[C@H](O)CN[C@H]1CC2(CCC2)Oc2ncc(CC(C)C)cc21 [Example 776]", "HLM, µL/min/mg": 58}
{"COMPOUND": "CO[C@H](C)C(=O)N[C@@H](Cc1ccc(F)c(-c2nccs2)c1)[C@H](O)CN[C@H]1CC2(CCC2)Oc2ncc(CC(C)(C)F)cc21 [compound 760]", "HLM, µL/min/mg": 26}
{"COMPOUND": "CO[C@H](C)C(=O)N[C@@H](Cc1ccc2c(c1)OCO2)[C@H](O)CN[C@@H]1c2cc(CC(C)(C)C)cnc2OC2(CCC2)[C@H]1F [compound 539]", "HLM, µL/min/mg": 61}
{"COMPOUND": "CCCc1cnc2c(c1)[C@@H](NC[C@@H](O)[C@H](Cc1cc(F)cc(-c3nccs3)c1)NC(=O)[C@@H](C)OC)CC1(CCC1)O2 [compound 853]", "HLM, µL/min/mg": 93}
{"COMPOUND": "COCC(=O)N[C@@H](Cc1cc(F)cc(-c2nccs2)c1)[C@H](O)CN[C@H]1CC2(CCC2)Oc2ncc([C@@H]3CC3(C)C)cc21 [Example 773]", "HLM, µL/min/mg": 62}
{"COMPOUND": "COCC(=O)N[C@@H](Cc1cccc([C@H]2CCCO2)c1)[C@H](O)CN[C@H]1CC2(CCC2)Oc2ncc(CC(C)(C)C)cc21 [compound 916]", "HLM, µL/min/mg": 399}
